The measurements presented in this section are drawn from patent US9169241B2.

Test system: SF126
measurement-notes: Cell vitality assay (ATP assay, CellTiter-Glo)
Format: cell-based
condition-notes: Homo sapiens, SF-126; SF126, 72 h; Table IIa; read-out: IC50 ATP-Assay after 72 h SF126
pIC50: −log10 of the molar value.
readout-name: pIC50

IN: I'm curious: which pIC50 was measured for COc1cc2c(Oc3ccc(NS(=O)(=O)c4ccc(Cl)s4)cc3F)ccnc2cc1OCCCN1CCCC(C)C1 (stereo not shown) tested on SF126?
OUT: 4.30 to 4.90

IN: Provide value of pIC50 for this record tested with SF126: COc1cc2c(Oc3ccc(NS(=O)(=O)c4cccc(Cl)c4F)cc3F)ccnc2cc1OCCCN1CCCC(C)C1 (stereo not shown)
OUT: 4.30 to 4.90

IN: Recall the recorded pIC50 for COc1cc2c(Oc3ccc(NS(=O)(=O)c4ccc(C)c(F)c4)cc3F)ccnc2cc1OCCCN1CCCC(C)C1 (stereo not shown) with SF126 and state it.
OUT: ≥ 4.90

IN: # value lookup — system SF126, readout pIC50, item COc1cc2c(Oc3ccc(NS(=O)(=O)c4c(Cl)cccc4Cl)cc3F)ccnc2cc1OCCN1CCOCC1
OUT: 4.30 to 4.90

Hi there! I need pIC50 for each item below, if you can.
1. COc1cc2c(Oc3ccc(NS(=O)(=O)c4ccccc4C(F)(F)F)cc3Cl)ccnc2cc1OCCCN1CCN(C)CC1
2. COc1cc2c(Oc3ccc(NS(=O)(=O)c4cc(F)ccc4F)cc3Cl)ccnc2cc1OCCCN1CCN(C)CC1
3. COc1cc2c(Oc3ccc(NS(=O)(=O)c4c(F)cccc4F)cc3F)ccnc2cc1OCCCN1CCN(C)CC1

OUT:
≥ 4.90
≥ 4.90
≥ 4.90
